system: 276233-004-R-J1-PDC KRAS spheroids with HUVEC/MSC, viability; assay: Anticancer human tumor 276233-004-R-J1-PDC patient-derived colon adenocarcinoma cell line growth inhibition [KRAS2]; conditions: second compound 3.16 µM; first compound 0.1 µM; stronger effect = lower value;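 also: cells exposed to agents for seven days before viability read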
Mark met only when viability, T/C stays strictly below 70%. Values equal to the cut-off are not met.

Here's what some known entries look like.
compound: CC(C)n1nc(-c2ccc3oc(N)nc3c2)c2c(N)ncnc21 + C=CC(=O)N1CCN(c2nc(=O)n(-c3c(C)ccnc3C(C)C)c3nc(-c4c(O)cccc4F)c(F)cc23)C(C)C1
assignedCategory: met
//
compound: COc1cc2nccc(Oc3ccc(NC(=O)C4(C(=O)Nc5ccc(F)cc5)CC4)cc3)c2cc1OC + COc1cc2nc(C)nc(NC(C)c3cc(N)cc(C(F)(F)F)c3)c2cc1OC1CCOC1
assignedCategory: not met
//
compound: CN(C)C/C=C/C(=O)Nc1cc2c(Nc3ccc(F)c(Cl)c3)ncnc2cc1O[C@H]1CCOC1 + CNCc1ccccc1-c1csc(C(C)Nc2nc(C)nc3cc(OC)c(OC)cc23)c1
assignedCategory: met
//
compound: CC1COCCN1c1cc(-c2ccnn2C)c2ccnc(-c3ccn[nH]3)c2n1 (centres undefined) + CC1OCC2(CCN(c3cnc(Sc4ccnc(N)c4Cl)c(N)n3)CC2)C1N
assignedCategory: met
//
compound: CCN1CCN(Cc2ccc(Nc3ncc(F)c(-c4cc(F)c5nc(C)n(C(C)C)c5c4)n3)nc2)CC1 + CC1OCC2(CCN(c3cnc(Sc4ccnc(N)c4Cl)c(N)n3)CC2)C1N
assignedCategory: met

API: the following record is the query input.
Determine whether this compound shows viability, T/C lower than 70% (ties excluded): CC1OCC2(CCN(c3cnc(Sc4ccnc(N)c4Cl)c(N)n3)CC2)C1N (centres undefined) + C=CC(=O)N1CCN(c2nc(OCC3CCCN3C)nc3c2CCN(c2cccc4cccc(C)c24)C3)CC1CC#N
met
